Where do the numbers come from? From the Kinase Knowledgebase extract (Sharma et al. 2016).

Target: MAPK14 (human) (UniProt Q16539)
Sequence (Q16539 whole entry, looked up): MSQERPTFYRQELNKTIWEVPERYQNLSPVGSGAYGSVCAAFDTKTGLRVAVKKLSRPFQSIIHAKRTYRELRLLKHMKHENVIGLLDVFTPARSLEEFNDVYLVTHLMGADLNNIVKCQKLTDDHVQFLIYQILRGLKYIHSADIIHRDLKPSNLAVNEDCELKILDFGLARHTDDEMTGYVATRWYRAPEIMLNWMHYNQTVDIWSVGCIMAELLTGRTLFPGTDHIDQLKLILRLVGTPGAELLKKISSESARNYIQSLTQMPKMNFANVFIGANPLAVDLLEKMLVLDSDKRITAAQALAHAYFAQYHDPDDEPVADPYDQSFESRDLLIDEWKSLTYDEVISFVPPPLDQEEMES
MEASURED PROPERTY: IC50 (µM)
Just the number in µM, nothing appended.

Query: For Cc1cccc(C)c1-n1c(=O)[nH]c2c(-c3ccccc3Cl)ncnc21 , what is its reported IC50?
Response: 7.8
